B1: glmS ribozyme (parent)
chain: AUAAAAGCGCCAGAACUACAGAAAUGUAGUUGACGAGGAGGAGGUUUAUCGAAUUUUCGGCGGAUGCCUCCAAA

variants of: B1; assay: self-cleavage kobs at 40 uM GlcN6P; higher = faster cleavage; RNA array; details: with glucosamine-6-phosphate
Fewer inactive variants are shown than the library holds.
Below, each entry is listed alongside its reported self-cleavage kobs at 40 uM GlcN6P.

Measured self-cleavage kobs at 40 uM GlcN6P of A14U G35C : < 1e-05 s⁻¹

Measured self-cleavage kobs at 40 uM GlcN6P of A15U C50G : 3.42e-05 s⁻¹

Measured self-cleavage kobs at 40 uM GlcN6P of C16A U46C : < 1e-05 s⁻¹

Measured self-cleavage kobs at 40 uM GlcN6P of A6G A36U C50U : < 1e-05 s⁻¹

Measured self-cleavage kobs at 40 uM GlcN6P of G37U C58U G63A : < 1e-05 s⁻¹

Measured self-cleavage kobs at 40 uM GlcN6P of G13C U49C : < 1e-05 s⁻¹

Measured self-cleavage kobs at 40 uM GlcN6P of G7C G13U A33G U45G : < 1e-05 s⁻¹

Measured self-cleavage kobs at 40 uM GlcN6P of G43U A64C : < 1e-05 s⁻¹
